Tested on: MS2 coat protein
test.name: apparent KD of MS2 coat protein; higher = weaker reporter binding
protocol.conditions: Eterna round: R107; input ligand: theophylline 20 uM
measure: apparent KD of MS2 coat protein (nM)
Give just the numeric value; nM need not be written.

-- ask Return apparent KD of MS2 coat protein for the following sequence: CUACAUUUGUAGAAACCGGUCACCAUUAUUCGAGGACCGGUACGGCCGCCACUCGUAUCAUGUGAUACAUGAGGAUCACCCAUGU [Tryptophan A 9]
-- reply 33.7

-- ask Return apparent KD of MS2 coat protein for the following sequence: UAAUAAAUAAAUCCAAGGUGAAGGUCAGAUACCAGCCAGAUAACUGGCCCUUGGCAGCUGAAUAAACUUGAGGAACACCCAAGUA [TheoAS 28 #OpenEnded #MS2Late #AlternativeMS2]
-- reply 31.3

-- ask Return apparent KD of MS2 coat protein for the following sequence: AGCGCAGGUCCUGAUACCAGUGACAUGAGGAUCACCCAUGUCCGAUGGGCCUGCCUCUGACACCCUUGGCAGCAGGGCUUGUGCU [#14 Exclusion-TheophyllineB]
-- reply 49.8

-- ask Return apparent KD of MS2 coat protein for the following sequence: GAUAGAACAAAAGUUUUAUCAGUGGGUGAACGAGGACCGGUACGGCCGCCACUCGGACAUGAGGAUCACCCAUGUCCAUGUGAAA [AstrosExyTryA#17]
-- reply 17.1

-- ask Return apparent KD of MS2 coat protein for the following sequence: GGAUCCAUCCGAAGGAGCGUCGGAAAUGGGUAAACAUGAGGAUCACCCAUGUAAAGGGAACGGCAGGUAGGUCGCGGAUGGAUCC [#25 Same State - Arginine B]
-- reply 167

-- ask Return apparent KD of MS2 coat protein for the following sequence: UGUAUGUGAACUGAUACCAGACCUCAAUCUUGAGGAUCACCCAAGGAGGACGAAAGUCCGGUCCCUUGGCAGCAGUUCACAUACU [ThBS - Unstable 2]
-- reply 737

-- ask Return apparent KD of MS2 coat protein for the following sequence: UGUAUGGACUGAAGGAGCGGGAAAUAAACCUGAGGAACACCCAGGUAAUAGGCGAAAGCCACCCAGGUAGGUCGCAGUCCAUACU
-- reply 14.8

-- ask Return apparent KD of MS2 coat protein for the following sequence: GCAAUAACGAUUGAUACCAGCAUGUUAACAUGAGGAUCACCCAUGUUAAGGAUAACAUAAUGCCCUUGGCAGCAACGGAAAGCCG [Ac]
-- reply 22.9

-- ask Return apparent KD of MS2 coat protein for the following sequence: AUACAUGAGGAUCACCCAUGUUAUAGUGAAGGAGCGACAUUUAUGUCAGGUAGGUCGCACUAUUGUUUAAUGAUUCUUGGAUCUU [JR_ExcArginiA_Sub017]
-- reply 22.4

-- ask Return apparent KD of MS2 coat protein for the following sequence: GGGCCCGUAAGCAGGCCCACAGCGGGUGAUACCAGCAAUAAAACUUGCCCUUGGCAGCACACAGCUACAUGAGGAUCACCCAUGU [Mausdi]
-- reply 59.3

-- ask Return apparent KD of MS2 coat protein for the following sequence: CAAUCAAUCAAUCAAUCAAUCAACCAUGAAGGAGCGUGGGAAACCACAGGUAGGUCGCAUGGAAAACAUGAGGAUCACCCAUGUA [Casablanca]
-- reply 45.2

-- ask Return apparent KD of MS2 coat protein for the following sequence: AUAAGUGUAAGAUACCGCACGCUGGAGGAAGGAGCGCGGAUUAACGCAGGUAGGUCGCCUCGUACAUGAGGAUCACCCAUGUGGC [#14 Same State - Arginine A]
-- reply 41.5
